Data provenance is paper PMC10962654.

test-parameters: GHI-L (GHI […], i.v.), MI/R rats, plasma, n = 6
measurement-label: CL1 (mL/min/kg)

Consider the following illustrative entries.
molecule: O=C(/C=C/c1ccc(O)c(O)c1)O[C@@H]1C[C@](O)(C(=O)O)C[C@@H](O)[C@H]1O
CL1, mL/min/kg: 44.48
--
molecule: O=c1c(O[C@@H]2O[C@H](CO)[C@@H](O)[C@H](O)[C@H]2O)c(-c2ccc(O)cc2)oc2cc(O)cc(O)c12 [Kaempferol-3-O-glucoside, kaempferol-3-O-glucoside]
CL1, mL/min/kg: 87.58
--
molecule: C[C@@H]1O[C@@H](OC[C@H]2O[C@@H](Oc3c(-c4ccc(O)c(O)c4)oc4cc(O)cc(O)c4c3=O)[C@H](O)[C@@H](O)[C@@H]2O)[C@H](O)[C@H](O)[C@H]1O
CL1, mL/min/kg: 63.25

(P) O=c1c(O[C@@H]2O[C@H](CO)[C@H](O)[C@H](O)[C@H]2O)c(-c2ccc(O)c(O)c2)oc2cc(O)cc(O)c12 [Hyperoside, hyperoside]
(Q) O=C(O)/C=C/c1ccc(O)cc1
**Query** // compare measured CL1 between P and Q ; output the lower one // caller expects the label of the chosen entry
**Result** Q
(Q: 55.28 mL/min/kg, P: 88.93 mL/min/kg)

###

test-parameters: GHI-M (GHI 5 mL/kg, i.v.), MI/R rats, plasma, n = 6
measurement-label: K12 (h⁻¹)

compound: O=c1c(O[C@@H]2O[C@H](CO)[C@@H](O)[C@H](O)[C@H]2O)c(-c2ccc(O)cc2)oc2cc(O)cc(O)c12 [Kaempferol-3-O-glucoside, kaempferol-3-O-glucoside]
reading-unit: h⁻¹
measured: 9.709
--
compound: O=c1c(O[C@@H]2O[C@H](CO)[C@H](O)[C@H](O)[C@H]2O)c(-c2ccc(O)c(O)c2)oc2cc(O)cc(O)c12 [Hyperoside, hyperoside]
reading-unit: h⁻¹
measured: 14.086
--
compound: O=C(O)/C=C/c1ccc(O)cc1
reading-unit: h⁻¹
measured: 11.023
--
compound: O=C(/C=C/c1ccc(O)c(O)c1)O[C@@H]1C[C@](O)(C(=O)O)C[C@@H](O)[C@H]1O
reading-unit: h⁻¹
measured: 14.709
--
compound: C[C@@H]1O[C@@H](OC[C@H]2O[C@@H](Oc3c(-c4ccc(O)c(O)c4)oc4cc(O)cc(O)c4c3=O)[C@H](O)[C@@H](O)[C@@H]2O)[C@H](O)[C@H](O)[C@H]1O
reading-unit: h⁻¹
measured: 11.318

###

test-parameters: GHI-L (GHI […], i.v.), MI/R rats, plasma, n = 6
measurement-label: CL2 (mL/min/kg)

These recorded examples may help you get a feel for the data.
molecule: O=C(O)/C=C/c1ccc(O)cc1 [p-Coumaric acid, p-coumaric acid]
CL2 [mL/min/kg]: 98.48

molecule: O=c1c(O[C@@H]2O[C@H](CO)[C@@H](O)[C@H](O)[C@H]2O)c(-c2ccc(O)cc2)oc2cc(O)cc(O)c12 [Kaempferol-3-O-glucoside, kaempferol-3-O-glucoside]
CL2 [mL/min/kg]: 133.3

molecule: O=c1c(O[C@@H]2O[C@H](CO)[C@H](O)[C@H](O)[C@H]2O)c(-c2ccc(O)c(O)c2)oc2cc(O)cc(O)c12 [Hyperoside, hyperoside]
CL2 [mL/min/kg]: 144.8

(P) O=C(/C=C/c1ccc(O)c(O)c1)O[C@@H]1C[C@](O)(C(=O)O)C[C@@H](O)[C@H]1O [Chlorogenic acid, chlorogenic acid]
(Q) C[C@@H]1O[C@@H](OC[C@H]2O[C@@H](Oc3c(-c4ccc(O)c(O)c4)oc4cc(O)cc(O)c4c3=O)[C@H](O)[C@@H](O)[C@@H]2O)[C@H](O)[C@H](O)[C@H]1O [Rutin, rutin]
**Query** Kindly compare P with Q and tell me which has the lower CL2 figure. Please indicate the selected item by its label.
**Result** Q
(Q: 104.4 mL/min/kg, P: 150 mL/min/kg)

###

test-parameters: GHI-L (GHI […], i.v.), MI/R rats, plasma, n = 6
measurement-label: V1 (L/kg)

compound: C[C@@H]1O[C@@H](OC[C@H]2O[C@@H](Oc3c(-c4ccc(O)c(O)c4)oc4cc(O)cc(O)c4c3=O)[C@H](O)[C@@H](O)[C@@H]2O)[C@H](O)[C@H](O)[C@H]1O
V1 / L/kg: 0.379

(P) O=C(O)/C=C/c1ccc(O)cc1
(Q) O=C(/C=C/c1ccc(O)c(O)c1)O[C@@H]1C[C@](O)(C(=O)O)C[C@@H](O)[C@H]1O
**Query** Lowest V1? choose P or Q Select an item and report its label.
**Result** P
(P: 0.462 L/kg, Q: 0.672 L/kg)

###

test-parameters: GHI-L (GHI […], i.v.), MI/R rats, plasma, n = 6
measurement-label: K21 (h⁻¹)

These recorded examples may help you get a feel for the data.
molecule: O=C(/C=C/c1ccc(O)c(O)c1)O[C@@H]1C[C@](O)(C(=O)O)C[C@@H](O)[C@H]1O
K21, h⁻¹: 3.902
--
molecule: C[C@@H]1O[C@@H](OC[C@H]2O[C@@H](Oc3c(-c4ccc(O)c(O)c4)oc4cc(O)cc(O)c4c3=O)[C@H](O)[C@@H](O)[C@@H]2O)[C@H](O)[C@H](O)[C@H]1O
K21, h⁻¹: 3.748
--
molecule: O=c1c(O[C@@H]2O[C@H](CO)[C@@H](O)[C@H](O)[C@H]2O)c(-c2ccc(O)cc2)oc2cc(O)cc(O)c12 [Kaempferol-3-O-glucoside, kaempferol-3-O-glucoside]
K21, h⁻¹: 2.832

(I) O=C(O)/C=C/c1ccc(O)cc1
(II) O=c1c(O[C@@H]2O[C@H](CO)[C@H](O)[C@H](O)[C@H]2O)c(-c2ccc(O)c(O)c2)oc2cc(O)cc(O)c12 [Hyperoside, hyperoside]
**Query** Which has the higher K21, I or II ? Lab log: write the label of the selected item as the result.
**Result** I
(I: 4.662 h⁻¹, II: 2.929 h⁻¹)

###

test-parameters: GHI-H (GHI 10 mL/kg, i.v.), MI/R rats, plasma, n = 6
measurement-label: Q (mL/min/kg)

(a) O=C(/C=C/c1ccc(O)c(O)c1)O[C@@H]1C[C@](O)(C(=O)O)C[C@@H](O)[C@H]1O [Chlorogenic acid, chlorogenic acid]
(b) O=C(O)/C=C/c1ccc(O)cc1 [p-Coumaric acid, p-coumaric acid]
**Query** Thinking about recorded Q values, which is higher, a or b ? Provide the label of your selected option as the answer.
**Result** a

###

test-parameters: GHI-M (GHI 5 mL/kg, i.v.), MI/R rats, plasma, n = 6
measurement-label: V1 (L/kg)

Some entries whose results are on file:
compound: O=C(O)/C=C/c1ccc(O)cc1
measured: 0.677
//
compound: O=c1c(O[C@@H]2O[C@H](CO)[C@@H](O)[C@H](O)[C@H]2O)c(-c2ccc(O)cc2)oc2cc(O)cc(O)c12 [Kaempferol-3-O-glucoside, kaempferol-3-O-glucoside]
measured: 0.59

(1) O=C(/C=C/c1ccc(O)c(O)c1)O[C@@H]1C[C@](O)(C(=O)O)C[C@@H](O)[C@H]1O
(2) O=c1c(O[C@@H]2O[C@H](CO)[C@H](O)[C@H](O)[C@H]2O)c(-c2ccc(O)c(O)c2)oc2cc(O)cc(O)c12 [Hyperoside, hyperoside]
**Query** # returns the entry with the larger V1; inputs 1 and 2 I would appreciate it if you answered with the label of your choice.
**Result** 1

###

test-parameters: GHI-H (GHI 10 mL/kg, i.v.), MI/R rats, plasma, n = 6
measurement-label: V1 (L/kg)

compound: O=c1c(O[C@@H]2O[C@H](CO)[C@@H](O)[C@H](O)[C@H]2O)c(-c2ccc(O)cc2)oc2cc(O)cc(O)c12 [Kaempferol-3-O-glucoside, kaempferol-3-O-glucoside]
V1, L/kg: 0.475
--
compound: O=c1c(O[C@@H]2O[C@H](CO)[C@H](O)[C@H](O)[C@H]2O)c(-c2ccc(O)c(O)c2)oc2cc(O)cc(O)c12 [Hyperoside, hyperoside]
V1, L/kg: 0.309

(A) C[C@@H]1O[C@@H](OC[C@H]2O[C@@H](Oc3c(-c4ccc(O)c(O)c4)oc4cc(O)cc(O)c4c3=O)[C@H](O)[C@@H](O)[C@@H]2O)[C@H](O)[C@H](O)[C@H]1O
(B) O=C(/C=C/c1ccc(O)c(O)c1)O[C@@H]1C[C@](O)(C(=O)O)C[C@@H](O)[C@H]1O
(C) O=C(O)/C=C/c1ccc(O)cc1
**Query** Returns the items ordered by V1, from maximum to minimum. Thanks in advance for listing the labels in the requested order.
**Result** C, B, A

###

test-parameters: GHI-M (GHI 5 mL/kg, i.v.), MI/R rats, plasma, n = 6
measurement-label: CL2 (mL/min/kg)

compound: O=c1c(O[C@@H]2O[C@H](CO)[C@@H](O)[C@H](O)[C@H]2O)c(-c2ccc(O)cc2)oc2cc(O)cc(O)c12 [Kaempferol-3-O-glucoside, kaempferol-3-O-glucoside]
reading-unit: mL/min/kg
CL2: 79.43

(I) O=C(/C=C/c1ccc(O)c(O)c1)O[C@@H]1C[C@](O)(C(=O)O)C[C@@H](O)[C@H]1O
(II) O=c1c(O[C@@H]2O[C@H](CO)[C@H](O)[C@H](O)[C@H]2O)c(-c2ccc(O)c(O)c2)oc2cc(O)cc(O)c12 [Hyperoside, hyperoside]
**Query** I need your help: which of the pair I , II has higher CL2? Response format: the label of the selected entry.
**Result** I
